Each record here notes measured pre-steady-state target cleavage rate.
System: MIWI (PIWIL1) piRISC loaded with L1MC piRNA (30 nt);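 further: 1 nM active piRISC with 0.1 nM target library at 33 °C single turnover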
Test: pre-steady-state target cleavage rate (min^-1); higher = faster piRNA-guided slicing of the target
Details: guide: L1MC piRNA 5'p-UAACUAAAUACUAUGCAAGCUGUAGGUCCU; auxiliary factor: none (no GTSF1)
In all, about 8,200 sequences were measured (“pre-steady-state target cleavage rate”: median about 0.024, highest 2% from about 1.3 on). The full list was thinned out, with the highest values kept by preference.
A bare number is all that is needed in reply.

Use these answered entries as a reference point.
UCGACCUACAUGCUUGCAUAGUAUUUAGUUA : 0.0554
UCCUGGAUCAGCUUGCAUAGUAAUUAGAUA : 0.0126

IN: Please give the measured pre-steady-state target cleavage rate for this sequence: "AGGUGGUACAGCUUGCAUAGUAUUUAGUAA"
OUT: 0.04

IN: Request the reported pre-steady-state target cleavage rate associated with "UGGACCUACAGCUUGCAUAGUAUUUAGUAA"
OUT: 0.0627

IN: // pre-steady-state target cleavage rate lookup, key: "UCCAGCUACAGCUUGCAUAGUAUUAAGUUA"
OUT: 0.015

----------
Measured pre-steady-state target cleavage rate accompanies every entry in the list below.
Tested on: MIWI (PIWIL1) piRISC loaded with L1MC piRNA (30 nt);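 further: 1 nM active piRISC with 0.1 nM target library at 33 °C single turnover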
Assay: pre-steady-state target cleavage rate (min^-1); higher = faster piRNA-guided slicing of the target
Details: guide: L1MC piRNA 5'p-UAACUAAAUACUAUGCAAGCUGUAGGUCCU; auxiliary factor: none (no GTSF1)
In all, about 8,200 sequences were measured (“pre-steady-state target cleavage rate”: median about 0.024, highest 2% from about 1.3 on). Many of the other results were omitted from the sample, so the highest values are more common in it than they were.

Reference set (2 entries):
UCCUCCUUACAGCUUGCAUAGUAUUUAGUUA : 0.0583
UCCUGGUUACAGCUUGCAUAGUAUUUAGUUA : 0.0561

# ---- query sequence ----
IN: # get_value(readout='pre-steady-state target cleavage rate', item= "UCCUGCGUACAGCUUGCAUAGUAUUUAGUUA" )
OUT: 0.0785

----------
Test system: MIWI (PIWIL1) piRISC loaded with L1MC piRNA (30 nt);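 further: 1 nM active piRISC with 0.1 nM target library at 33 °C single turnover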
Experiment: pre-steady-state target cleavage rate (min^-1); higher = faster piRNA-guided slicing of the target
Settings: guide: L1MC piRNA 5'p-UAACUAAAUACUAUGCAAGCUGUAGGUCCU; auxiliary factor: none (no GTSF1)
In all, about 8,200 sequences were measured (“pre-steady-state target cleavage rate”: median about 0.024, highest 2% from about 1.3 on). The full list was thinned out, with the highest values kept by preference.
REPORTED_METRIC: pre-steady-state target cleavage rate
Note: the reply should be a number with no unit written.

UCGACCUAGAGCUUGCUUAGUAUUUAGUUA : 0.0282
UCCACCUACAGCUUGCAUACUAUAUAGUUA : 0.0112
AGGACCUACGGCUUGCAUAGUAUUUAGUUA : 0.0872
UCGACCUACGAGCUUGCAUAGUAUUUAGUUA : 0.0529
UCCUGGAUGUGCUUGCAUAGUAUUUAUGUUA : 0.0215

Here is the next item to consider.
IN: Requested field: pre-steady-state target cleavage rate. Item: "UCCUCCUACAGCUUGCAUAGAAAUUAGUUA"
OUT: 0.00268

----------
Test system: MIWI (PIWIL1) piRISC loaded with L1MC piRNA (30 nt);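 further: 1 nM active piRISC with 0.1 nM target library at 33 °C single turnover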
Assay: pre-steady-state target cleavage rate (min^-1); higher = faster piRNA-guided slicing of the target
Details: guide: L1MC piRNA 5'p-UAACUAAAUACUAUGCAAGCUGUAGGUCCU; auxiliary factor: none (no GTSF1)
In all, about 8,200 sequences were measured (“pre-steady-state target cleavage rate”: median about 0.024, highest 2% from about 1.3 on). The sample as a whole holds a higher share of the highest values than the screen did.
This section presents sequences with their documented pre-steady-state target cleavage rate values.
Lab note: record the figure alone, no unit after it.

Known results for sequences:
UCCUGGAACAGCUUGCAUAGUAUUUAGAUA : 0.0172
UCCUGGUACAGCUUGCAUAGUAUUUAGAUUA : 0.0165
UCCUGCUACAGCUUGCAAAGUAUUUAGUUA : 0.03
UCCUCCUACAGCUCUGCAUAGUAUUUAGUUA : 0.0182
AGGACCUACAGCUCGCAUAGUAUUUAGUUA : 0.0694

IN: So what pre-steady-state target cleavage rate did "UGGACCUACAGCUCGCAUAGUAUUUAGUUA" get with MIWI (PIWIL1) piRISC loaded with L1MC piRNA (30 nt)?;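 further: 1 nM active piRISC with 0.1 nM target library at 33 °C single turnover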
OUT: 0.0604

IN: What value of pre-steady-state target cleavage rate on MIWI (PIWIL1) piRISC loaded with L1MC piRNA (30 nt) does "UCGACCUCCAGCUUGCAUAGUAUUUAGUUA" have?;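 further: 1 nM active piRISC with 0.1 nM target library at 33 °C single turnover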
OUT: 0.0635

IN: GET /values?readout=pre-steady-state target cleavage rate&system=MIWI (PIWIL1) piRISC loaded with L1MC piRNA (30 nt)&item= "UCCACCUACAGCUUGCAUAGAAUUUAGAUA"
OUT: 0.00935

IN: Lab request: please report pre-steady-state target cleavage rate under test system MIWI (PIWIL1) piRISC loaded with L1MC piRNA (30 nt) for "UCCUCCUACAGCUCGCAUAGUAUUUAGUUA"
OUT: 0.0488

IN: Quick check: pre-steady-state target cleavage rate on MIWI (PIWIL1) piRISC loaded with L1MC piRNA (30 nt), item "UCCUGCAACAGCUUGCAAAGUAUUUAGUUA" ?;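 further: 1 nM active piRISC with 0.1 nM target library at 33 °C single turnover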
OUT: 0.0463

IN: Give pre-steady-state target cleavage rate (MIWI (PIWIL1) piRISC loaded with L1MC piRNA (30 nt)) of the following sequence: "UCGACCUUGAGCUUGCAUAGUAUUUAGUUA"
OUT: 0.0478

IN: pre-steady-state target cleavage rate of "UCCUGGUACAGUUUGCAUAGUAUUUAGUUA" on MIWI (PIWIL1) piRISC loaded with L1MC piRNA (30 nt)?;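 further: 1 nM active piRISC with 0.1 nM target library at 33 °C single turnover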
OUT: 0.0392

IN: Hello, I am looking for reported pre-steady-state target cleavage rate with MIWI (PIWIL1) piRISC loaded with L1MC piRNA (30 nt) for "UCCUGCAACAGCAUGCAUAGUAUUUAGUUA" . Could you help?;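 further: 1 nM active piRISC with 0.1 nM target library at 33 °C single turnover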
OUT: 0.0331

IN: Give pre-steady-state target cleavage rate (MIWI (PIWIL1) piRISC loaded with L1MC piRNA (30 nt)) of the following sequence: "UCCACCUCACAGCUUGCAUAGUAUUUAGUUA"
OUT: 0.0701

IN: // map "UGGACCUACAGCUACCAUAGUAUUUAGUUA" to recorded pre-steady-state target cleavage rate (system: MIWI (PIWIL1) piRISC loaded with L1MC piRNA (30 nt));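 further: 1 nM active piRISC with 0.1 nM target library at 33 °C single turnover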
OUT: 0.00241

IN: Request body: readout pre-steady-state target cleavage rate, system MIWI (PIWIL1) piRISC loaded with L1MC piRNA (30 nt), query "UGGACCUACAGCUGGCAUAGUAUUUAGUUA" . Return the value.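 Further: 1 nM active piRISC with 0.1 nM target library at 33 °C single turnover.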
OUT: 0.0463

IN: Entry "AGGACCUACAGCUGGCAUAGUAUUUAGUUA" , system MIWI (PIWIL1) piRISC loaded with L1MC piRNA (30 nt): what pre-steady-state target cleavage rate was measured?;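 further: 1 nM active piRISC with 0.1 nM target library at 33 °C single turnover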
OUT: 0.0579

----------
System: MIWI (PIWIL1) piRISC loaded with L1MC piRNA (30 nt);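 further: 1 nM active piRISC with 0.1 nM target library at 33 °C single turnover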
Assay: pre-steady-state target cleavage rate (min^-1); higher = faster piRNA-guided slicing of the target
Conditions: guide: L1MC piRNA 5'p-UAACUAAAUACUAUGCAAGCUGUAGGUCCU; auxiliary factor: 500 nM mouse GTSF1
The full ranking holds about 8,200 sequences; the median of “pre-steady-state target cleavage rate” is about 0.024, and the highest 2% start at about 1.3. Many of the other results were omitted from the sample, so the highest values are more common in it than they were.
pre-steady-state target cleavage rate below 0.9 gives no; pre-steady-state target cleavage rate at or above it gives yes.

UCCUGCUACAGCUUGCAUAGUAUUUUCAUA : no
UGCUCCUACAGCUUGCAUAGUAUUUAGUAA : yes
UCCUCCUACAGCUUGCAUACUAUUAAGUUA : no
UCCUGCUACAGCUUGCAUAGUAAUUUCAAA : no
UCCUGGAUCAGCUUGGAUAGUAUUAAGUUA : no

Please look at the following sequence next.
IN: Please check the record "UGGACCUACAGCUUGAAUAGUAUUUAGUUA" and state if its pre-steady-state target cleavage rate is at or above 0.9.
OUT: yes

----------
System: MIWI (PIWIL1) piRISC loaded with L1MC piRNA (30 nt);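 further: 1 nM active piRISC with 0.1 nM target library at 33 °C single turnover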
Assay: pre-steady-state target cleavage rate (min^-1); MIWI and MILI are mouse PIWI proteins and EfPiwi is from a freshwater sponge; tags in brackets are library labels; higher = faster piRNA-guided slicing of the target;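 further: 1 nM active piRISC with 0.1 nM target library at 33 °C single turnover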
Details: guide: L1MC piRNA 5'p-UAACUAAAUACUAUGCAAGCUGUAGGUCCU; auxiliary factor: none (no GTSF1)
Whole data set: some 8,200 sequences, median “pre-steady-state target cleavage rate” near 0.024, cut for the highest 2% near 1.3. What follows is part of a selection rich in the highest values, with near analogues and random picks from the rest.
pre-steady-state target cleavage rate of 0.04 or higher: class 1. Under 0.04: class 0.

UCCUGCAACAGCUUGGAUAGUAUUUAGUUA : class 1
UCCUGGAUGAGCUUGCAUACUAUUUAGAUA : class 0

IN: // inclusive: pre-steady-state target cleavage rate at least 0.04? input: "UCCACCUACAGCUUGCAUAGUAUUUAGGUA"
OUT: class 0

IN: Exam item: decide whether the reported pre-steady-state target cleavage rate for "UCCUCCUACAGCUAGCAUAGUAUUUAGUUA" is at least 0.04.
OUT: class 0

IN: Reported pre-steady-state target cleavage rate reaches at least 0.04 for "UCGACCAACAGCUAGCAUAGUAUUUAGUUA" ?
OUT: class 0

Origin of values: the supplement of paper PMC10338343
